All values here come from ChEMBL document CHEMBL1201862.

Each entry below lists one item and its recorded GI50 value.
Tested on: RXF 393
run.description: NCI tumour cell line growth inhibition, 48 h
Calls of active or inactive are those of the source. Cut-off read from the data, not from the text of the source: active = GI50 up to about 1.1 µM and inactive = higher.

# compound, target.or.system, GI50
data = [
    ("OC(CN1CCCCC1)c1ccc(/C=C/c2ccc(Cl)cc2)cc1 (stereo not given)", "RXF 393", "> 100 µM (inactive)"),
    ("Nc1ncnc2oc(C3OC(COC(=O)c4ccccc4)C(OC(=O)c4ccccc4)C3OC(=O)c3ccccc3)nc12 (stereo not given)", "RXF 393", "> 100 µM (inactive)"),
    ("CN1C2CCC1CC(=CCOC(c1ccc(F)cc1)c1ccc(F)cc1)C2", "RXF 393", "14.5 µM (inactive)"),
    ("Nc1nc(SCCc2ccccc2)c2nc[nH]c2n1", "RXF 393", "60.4 µM (inactive)"),
    ("NCCCNCCCNCCCN", "RXF 393", "> 100 µM (inactive)"),
    ("CC(=O)OC1CC2(C)C(=CC1C1SCCS1)CCC1C2CCC2(C)C(OC(C)=O)CCC12 (stereo not given)", "RXF 393", "19.3 µM (inactive)"),
    ("CCN(CC)CCN(/C(=N/c1ccccc1)N1CCOCC1)c1ccccc1", "RXF 393", "> 100 µM (inactive)"),
    ("Cc1cc(C)nc(NS(=O)(=O)c2ccc(Nc3c4ccccc4nc4c(C(=O)N5CCN(CCOS(C)(=O)=O)CC5)cccc34)cc2)n1", "RXF 393", "> 100 µM (inactive)"),
    ("CN(C)CCNC(=O)c1cccc2ccc(-c3ccc(O)cc3)nc12", "RXF 393", "4.72 µM (inactive)"),
    ("OC(COc1ccc(Cl)cc1Cl)CN1CCCC1 (stereo not given)", "RXF 393", "> 100 µM (inactive)"),
]
